Measured values drawn from patent US11840686B2 for this set.

- Tested on: human PKK mRNA
- test-method-notes: Antisense inhibition of human PKK mRNA in HepaRG cells, 3,000 nM (Example 1)
- Type: cell-based
- setup-conditions: Table 2; PKK mRNA, HepaRG cells, 3,000 nM, electroporation, ~24 h, relative to untreated control cells
Strand notation (5' to 3'): a small letter for the sugar, then the base; units joined by * are phosphorothioate-linked, units joined directly phosphodiester-linked; [ ] holds rarer units or linkages, { } end groups; capitals alone tell only the bases. e = 2'-O-(2-methoxyethyl) (MOE); [5mC] = 5-methylcytosine; d = 2'-deoxy (DNA)
% inhibition by entry:
Answer with a number only, understood to be in %.

Example results:
substance	assay-system	recorded-endpoint	units-of-measure	value-reported
531007 (eA*eA*e[5mC]*eA*e[5mC]*dA*dA*dT*dT*dG*d[5mC]*dT*dT*d[5mC]*dT*eT*eG*eG*eA*eG; antisense) [compound 531007]	human PKK mRNA	% inhibition	%	51
531053 (antisense eA*eG*e[5mC]*eA*e[5mC]*dA*dG*dA*d[5mC]*d[5mC]*dA*dT*d[5mC]*d[5mC]*dG*eT*eT*eG*eG*eG) [compound 531053]	human PKK mRNA	% inhibition	%	49

Turning now to a further substance:
Asked: # return % inhibition of 531052 (antisense eA*eG*eA*e[5mC]*e[5mC]*dA*dT*d[5mC]*d[5mC]*dG*dT*dT*dG*dG*dG*eT*eT*eA*eT*eT) [compound 531052] (system: human PKK mRNA)
Given back: 60

---

- Tested on: human PKK mRNA
- test-method-notes: Dose-dependent antisense inhibition of human PKK in HepaRG cells, 0.11-3.00 uM (Example 6)
- Format: cell-based
- setup-conditions: electroporation, 1.00 μM, approx. 16 hours, relative to untreated control cells
Strand notation (5' to 3'): a small letter for the sugar, then the base; units joined by * are phosphorothioate-linked, units joined directly phosphodiester-linked; [ ] holds rarer units or linkages, { } end groups; capitals alone tell only the bases. e = 2'-O-(2-methoxyethyl) (MOE); k = constrained ethyl (cEt); [5mC] = 5-methylcytosine; d = 2'-deoxy (DNA)
recorded-endpoint: percent inhibition of PKK mRNA, 1.00 μM (%)
Give your result in % as a bare value.

Completed entries (count: 5):
substance	percent inhibition of PKK mRNA, 1.00 μM (%)
548422 (antisense eG*eT*kA*dT*d[5mC]*dA*d[5mC]*dT*dG*dT*d[5mC]*d[5mC]*dT*kA*kT*eA) [compound 548422]	71
548106 (antisense e[5mC]*e[5mC]*kA*dT*dG*dT*dA*d[5mC]*dT*d[5mC]*dA*dG*d[5mC]*kG*kA*e[5mC]) [compound 548106]	82
548557 (antisense eG*eT*kT*dA*d[5mC]*dT*d[5mC]*dT*dG*dT*dG*dA*dT*k[5mC]*k[5mC]*eA) [compound 548557]	82
547862 (antisense eG*eA*k[5mC]*dT*d[5mC]*d[5mC]*dT*d[5mC]*dT*d[5mC]*dA*dT*dA*kT*k[5mC]*eA) [compound 547862]	69
548570 (eA*eT*kG*d[5mC]*d[5mC]*dT*dT*dG*dT*dG*d[5mC]*d[5mC]*dT*kA*kT*eT; antisense) [compound 548570]	70

Asked: Complete the entry with percent inhibition of PKK mRNA, 1.00 μM for 547870 (antisense e[5mC]*eT*kA*dA*d[5mC]*d[5mC]*dT*dT*dA*dG*dA*d[5mC]*dA*k[5mC]*kA*eT) [compound 547870]
Given back: 80

Asked: State, in one line, measured percent inhibition of PKK mRNA, 1.00 μM of 548265 (antisense e[5mC]*e[5mC]*kT*d[5mC]*dT*dT*dG*dA*dT*dT*dT*dG*dG*kG*k[5mC]*eA) [compound 548265]
Given back: 78

Asked: Let me know recorded percent inhibition of PKK mRNA, 1.00 μM for 547947 (eG*eG*kA*dA*d[5mC]*dT*dT*dG*dG*dT*dG*dT*dG*k[5mC]*k[5mC]*eA; antisense) [compound 547947] , thanks.
Given back: 81
